# System: PPARg:RXRa 30nM:10nM, anti-RXR (NR concentration 30 nM, RXRa partner concentration 10 nM)
# testMethodNotes: PBM binding z-score (relative to random genomic background probes); higher = stronger binding; sequences stand for … in GC…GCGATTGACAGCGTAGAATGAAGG
# key: entry, value: PBM binding z-score
measure: PBM binding z-score

sequencedata=GCTGCTAGGTCAACTGCTGGTCAGCTAAAGCTCG quantitativereadout=0.291
sequencedata=TCTGCTAGGTCAACGATGGTCAGCTAGTCTGCTA quantitativereadout=1.75
sequencedata=ATCGAAAGGTCGACGAGGTGACTATACACCGTTT quantitativereadout=1.22
sequencedata=GCGACTGGGGGAAAGCAGGTTACCATAAGGTTGG quantitativereadout=0.539
sequencedata=TCGAGCAGGTTACCAATGGGGCATTCAGCTTTCT quantitativereadout=0.211
sequencedata=ATATGCAGGTTAAGGGTCATTCAGGTTGGTTCGC quantitativereadout=8.36
sequencedata=AATACAGGGTCACTAGGCCAGAGAAGGTACGAAT quantitativereadout=3.11
sequencedata=CCTTACGTGTCAAGGTTATAGCACGGGTGGTACG quantitativereadout=0.3
sequencedata=GCGACTGGGGCAAAGCAGGTTACCGTAAGGTTGG quantitativereadout=-0.363
sequencedata=AGTCAAAGTTCAGGACGAGGTAACCTAAAGCACG quantitativereadout=2.04
sequencedata=CGAACTAGGTCAGAACAGGACAGTGTAGGATGAT quantitativereadout=1.85
sequencedata=GCGTACGGGTCAAAGGTTATAGCATGAATAGAAT quantitativereadout=8.99
sequencedata=CCTACTGGGCCATCAGGTCATTGAAATCAACGTT quantitativereadout=1.23
sequencedata=CCTGCTGGGCCATTCAGAGGTCATTGATCATATG quantitativereadout=0.0618
sequencedata=TCGAGTAGGTTACGAATGGGGCATTCAGCTTTCT quantitativereadout=0.971
sequencedata=TCTATAAGTTGAAGGGCAACCGACGAGTCCGTTT quantitativereadout=3.72
sequencedata=CCGAGTAGGTTATGGGGCGTTCAGGCAACGGTGA quantitativereadout=1.97
sequencedata=ATCGAAAGGTCGAGGTGAGTAGAGAGAAAGGGAA quantitativereadout=1.45
sequencedata=GCTGCTAAGTCAACTGATGGTCAGCTAAAGCTCG quantitativereadout=-0.793
sequencedata=GGAACGAGGGAAAAGTTGATAGCATCTGTCGACG quantitativereadout=1.71
sequencedata=CCTATTAGTTGATCATAAGGGCAACCGAAGCTCG quantitativereadout=0.0236
sequencedata=ATCTCTAGGTAAGACTCAGATCAGTGAAGAACGC quantitativereadout=0.134
sequencedata=ACAGACAGATGATGAAGGTAACTCAGGCTATCAT quantitativereadout=0.15
sequencedata=TAGCCTAGGTCATACGGGCCAGTATAGTGTCGGC quantitativereadout=0.318
sequencedata=CCTAGCAGGCCAATCTGGGTCACTAAAGGCTTGA quantitativereadout=-0.068
sequencedata=ACAGACAGGTGATGAAAGTAACTCAGGCTATCAT quantitativereadout=-0.0592
sequencedata=TGAATGAGGTTAACGATCAGGGAACGTGGCGTCG quantitativereadout=0.951
sequencedata=CGAACTAGGCCATTGACAGGACAGTGAATAGTAA quantitativereadout=0.274
sequencedata=GCTTGTAGATCAAGGTTAAGAAGGACTAAGCTAA quantitativereadout=0.323
sequencedata=CCGACTGGGGCAAAGGGTACCATACTCAGTACGA quantitativereadout=6.97
sequencedata=TCTTGTAGCTCAAGCAGGTTAAGAAAGCCTGAGT quantitativereadout=2.04
sequencedata=ATCTCTAGGTAAGACTAAGTTCAGTGAAGAACGC quantitativereadout=0.577
sequencedata=TCTTGTAGATCAATAGAGGATAAGAAAGTGCGCT quantitativereadout=2.75
sequencedata=TCTTGTAGAGCAACAGGAGGTTAAGAAAGATCGA quantitativereadout=1.4
sequencedata=CCTTACGGGTGACTGACAGGTTATAGCATTTGGA quantitativereadout=0.1
sequencedata=TCCAGCAGGCCAGAGGGTCACTCAAGAGGTACGG quantitativereadout=1.59
sequencedata=TAGCCTAGGTCAGTCAGGGGCCAGTATAGAAAGC quantitativereadout=-0.0718
sequencedata=ACTCGGAGGACAAAGGTCAGAGCAACGCCAGTGA quantitativereadout=6.17
sequencedata=TCTCGGAGGACACGAAAGGTCGGAGCTCGACATC quantitativereadout=1.93
sequencedata=GTACCCAGGTGAATAGGTCGTTGATGAGTAGGCG quantitativereadout=0.309
sequencedata=AGAATCAGGTTATACGTAGATCAGGGAAGAAAGT quantitativereadout=0.762
sequencedata=CGTCCAAGGTCAATGCTCGGTCAGTGAAAGCATT quantitativereadout=1.61
sequencedata=CCTAGCAGGCCAGGGTCACTCGAGCATTTCGCTT quantitativereadout=-0.327
sequencedata=CTCGAAAGGTCGGTTGAGGTGAGTGTACGGATAA quantitativereadout=0.405
sequencedata=GCTCGGAGGACAAGGACAGAGCTTTGTCCGTAGA quantitativereadout=-1.21
sequencedata=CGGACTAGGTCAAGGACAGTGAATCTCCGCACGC quantitativereadout=2.5
sequencedata=GGAACGAGGGCAAAGTTGATAGCATCTGTCGACG quantitativereadout=5.84
sequencedata=CCTCGGAGGACAACAGCAGGTCAGAGCTGCCAGA quantitativereadout=-0.784
sequencedata=GATACAGGGTCAGCTAGAGGCCAGAGTTTGGAAA quantitativereadout=0.716
sequencedata=AGTCAAAGTTCATCTAGTTAACGTAAGATATGCT quantitativereadout=3.55
sequencedata=TAGCCTAGGCCATTGGGCCAGTATAGTACGCATC quantitativereadout=-0.597

* * *

Known PBM binding z-score of a selection of sequences
# System: PPARg DBDmut:RXRa IVT, anti-PPARg (DBD mutation: PPARg1 K132A/R137A, NR concentration 270 nM, RXRa partner concentration 90 nM)
# testMethodNotes: PBM binding z-score (relative to random genomic background probes); higher = stronger binding; sequences stand for … in GC…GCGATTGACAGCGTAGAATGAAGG
measure: PBM binding z-score

sequencedata=ACTATTCGTTGAGACGAGGGCAACCGATAGGTTG measure="PBM binding z-score" result=1.01
sequencedata=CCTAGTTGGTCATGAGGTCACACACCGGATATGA measure="PBM binding z-score" result=1.13
sequencedata=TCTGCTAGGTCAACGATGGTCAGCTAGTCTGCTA measure="PBM binding z-score" result=-0.411
sequencedata=TCTATTAGTTAAAGGGCAACCGACGAGTCCGTTT measure="PBM binding z-score" result=0.374
sequencedata=GCAGACATGTGAAACGCAGGTAACTCAGGGTGGC measure="PBM binding z-score" result=-0.654
sequencedata=TCTAGTTGGTCAAAGGTCACACCCTCGAAATGCG measure="PBM binding z-score" result=1.66
sequencedata=CGTCCAAGGTCAAGGTCAGTTAAAGAGACTCGAA measure="PBM binding z-score" result=0.996
sequencedata=TCTATTAGTTGATTATGGCAACCGAAACAGCGGA measure="PBM binding z-score" result=1.3
sequencedata=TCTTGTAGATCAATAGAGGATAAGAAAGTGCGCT measure="PBM binding z-score" result=0.6
sequencedata=GCTGCTAGGTCAGGTTGGTCACCTAACGGGTACG measure="PBM binding z-score" result=-1.27
sequencedata=ATTCAAAGTTCACTAGGTAACGTAAGATTCAGCT measure="PBM binding z-score" result=1.68
sequencedata=CCGACAGGGGCAAAGGTTACCATACTCAGTACGA measure="PBM binding z-score" result=-0.209
sequencedata=CCTTACGGGTCACGAGGTTAGAGCACGACGAGCG measure="PBM binding z-score" result=2.76
sequencedata=GGAACGAGGGCACTCGAGTTGATAGCATGGCGAT measure="PBM binding z-score" result=0.411
sequencedata=TCTATTAGTTGATTAGGGGAACCGAAACAGCGGA measure="PBM binding z-score" result=0.627
sequencedata=CATACAGGGTCAGCTAGGCCAGTGTAGGGACGGC measure="PBM binding z-score" result=0.598
sequencedata=CCGACTGGGGCAGTAAGGTTACCATACCATCCGG measure="PBM binding z-score" result=-1.07
sequencedata=ACTCGGAGGCCAAAGGTCAGAGCTACGCCAGTGA measure="PBM binding z-score" result=0.0532
sequencedata=TCATATAGGTAAAAGGTGAAAGTCGGTGTGGTAA measure="PBM binding z-score" result=2.1
sequencedata=CGTACTGGGCCATTCAGAGGTCATTGATCATATG measure="PBM binding z-score" result=0.379
sequencedata=TCTCGGAGGGCACGAAGGTCAGAGCTTTCCAGAG measure="PBM binding z-score" result=-0.633
sequencedata=ATCTCTAGGCAAAGTTCAGTGAAAGATCGATAGA measure="PBM binding z-score" result=0.713
sequencedata=ATATGTAGGTTGGCTGGGGTCATTCAGACTAGGC measure="PBM binding z-score" result=1.35
sequencedata=CGAACGAGGGCATGAGTTAATAGCAAATGCCGAT measure="PBM binding z-score" result=-0.0604
sequencedata=ACAGACAGGTGATGAAGGTAACTCGGGCTATCAT measure="PBM binding z-score" result=-0.282
sequencedata=CGTCCAAGGTCAAAGGTTAGTGAAGAGATGACGG measure="PBM binding z-score" result=2.1
